MEASURED_ON: recombinant ER-α (Homo sapiens)
Construct: purchased Panvera/Invitrogen, Madison, WI
Sequence (P03372 1-595): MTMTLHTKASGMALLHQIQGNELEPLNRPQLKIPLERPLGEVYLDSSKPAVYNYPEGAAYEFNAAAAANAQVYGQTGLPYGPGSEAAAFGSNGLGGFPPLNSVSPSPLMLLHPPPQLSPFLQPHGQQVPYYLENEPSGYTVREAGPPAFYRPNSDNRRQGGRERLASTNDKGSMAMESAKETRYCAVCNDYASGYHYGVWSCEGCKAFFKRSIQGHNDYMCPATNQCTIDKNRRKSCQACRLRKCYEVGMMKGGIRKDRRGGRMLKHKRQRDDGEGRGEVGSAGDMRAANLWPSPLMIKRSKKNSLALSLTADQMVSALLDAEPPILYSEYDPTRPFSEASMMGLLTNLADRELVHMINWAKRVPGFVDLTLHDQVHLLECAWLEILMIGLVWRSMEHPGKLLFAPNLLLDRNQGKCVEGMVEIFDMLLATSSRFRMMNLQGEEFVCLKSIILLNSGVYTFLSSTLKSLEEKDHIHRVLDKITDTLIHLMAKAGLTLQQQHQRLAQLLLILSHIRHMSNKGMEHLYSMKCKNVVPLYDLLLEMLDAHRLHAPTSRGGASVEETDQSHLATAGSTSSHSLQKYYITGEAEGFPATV
EXPERIMENTAL_DETAILS: Recombinant ER-α binding assay (3H-E2 displacement)
PARTICULARS: 1 nM 3H-E2, 0.6 nM recombinant ER-α, 4°C overnight
PROPERTY_NAME: IC50 (µM)
Reply with just the number (in µM).

Query :: Could you share which IC50 value was measured for Oc1c(Br)ccc(Oc2ccc(Br)cc2Br)c1Br [3-OH-BDE-47, 3-OH-2, 2′, 4, 4′-tetrabromodiphenyl] ?
Result :: 52

----------
Test system: ERE-luciferase (ER-α-positive BG1Luc4E2 cells)
EXPERIMENTAL_DETAILS: ERE-luciferase reporter assay in stably transfected BG1Luc4E2 ovarian cancer cells
Format: cell-based, human
PARTICULARS: Homo sapiens; determined using the chemical's own maximum effect set at 100%; luciferase 18 hr after addition; read-out: EC50
So I've got a bunch of compounds here, and I need their EC50 values.
Answer with a number only, understood to be in µM.

Query :: Form field - read-out: EC50; system: ERE-luciferase (ER-α-positive BG1Luc4E2 cells); submitted item: Oc1cc(Br)c(Oc2ccc(Br)cc2Br)cc1Br
Result :: 13

Query :: I'm curious: which EC50 was measured for C[C@]12CC[C@@H]3c4ccc(O)cc4CC[C@H]3[C@@H]1CC[C@@H]2O [E2, 1, 3, 5(10)-estra-triene-3, 17β-diol, reference compound] tested on ERE-luciferase (ER-α-positive BG1Luc4E2 cells)?
Result :: 1.2e-06

Query :: ERE-luciferase (ER-α-positive BG1Luc4E2 cells) / EC50 / Oc1ccc(Oc2ccc(Br)cc2Br)c(Br)c1 : value?
Result :: 4.7

----------
MEASURED_ON: recombinant ER-α (Homo sapiens)
Construct: purchased Panvera/Invitrogen, Madison, WI
EXPERIMENTAL_DETAILS: Recombinant ER-α binding assay (3H-E2 displacement)
IC50 strictly under 10 µM means Fulfilled; at 10 µM or over means Not fulfilled.

Query :: State whether 10 µM exceeds IC50 recorded for Oc1cc(Br)c(Oc2ccc(Br)cc2Br)cc1Br [4′-OH-BDE-49, 4′-OH-2, 2′,4, 5′-tetrabromodiphenyl] .
Result :: Fulfilled

Query :: For this compound, is IC50 lower than 10 µM? Oc1cc(Br)cc(Br)c1Oc1ccc(Br)cc1Br [6-OH-BDE-47, 6-OH-2, 2′,4, 4′-tetra-bromodiphenyl]
Result :: Not fulfilled

Query :: Strictly below 10 µM: is that where IC50 of Oc1cc(Br)ccc1Oc1ccc(Br)cc1Br [2′-OH-BDE-28, 2′-OH - 2,4, 4′ - tribromodiphenyl] sits?
Result :: Not fulfilled

Query :: API: query returns whether the compound falls strictly under 10 µM in IC50. Query: Oc1ccc(Oc2ccc(Br)cc2Br)c(Br)c1 [4′-OH-BDE-17, 4-OH-2, 2′, 4-tribromodiphenyl]
Result :: Fulfilled

Query :: Is IC50 strictly under 10 µM for the entry Oc1ccc(Oc2ccc(Br)cc2Br)c(Br)c1Br [4-OH-BDE-42, 4-HO-2, 2′,3, 4′-tetra-bromodiphenyl] ?
Result :: Not fulfilled

----------
MEASURED_ON: recombinant ER-α (Homo sapiens)
Construct: purchased Panvera/Invitrogen, Madison, WI
EXPERIMENTAL_DETAILS: Recombinant ER-α binding assay (3H-E2 displacement)
PROPERTY_NAME: Relative affinity (E2 IC50 ÷ test chemical IC50 × 100) (%)
# output: bare number, implied unit %

Query :: Need Relative affinity (E2 IC50 ÷ test chemical IC50 × 100) of Oc1cc(Br)c(Oc2ccc(Br)cc2Br)cc1Br [4′-OH-BDE-49, 4′-OH-2, 2′,4, 5′-tetrabromodiphenyl] , thanks.
Result :: 0.03

Query :: Item Oc1ccc(Oc2ccc(Br)cc2Br)c(Br)c1 [4′-OH-BDE-17, 4-OH-2, 2′, 4-tribromodiphenyl] has what recorded Relative affinity (E2 IC50 ÷ test chemical IC50 × 100)?
Result :: 0.03

Query :: Data request, read-out Relative affinity (E2 IC50 ÷ test chemical IC50 × 100), for Oc1ccc(Oc2ccc(Br)cc2Br)c(Br)c1Br [4-OH-BDE-42, 4-HO-2, 2′,3, 4′-tetra-bromodiphenyl]
Result :: 0.005

Query :: Give its Relative affinity (E2 IC50 ÷ test chemical IC50 × 100) value. Item: Oc1cc(Br)ccc1Oc1ccc(Br)cc1Br [2′-OH-BDE-28, 2′-OH - 2,4, 4′ - tribromodiphenyl]
Result :: 0.001

Query :: Requested read-out: Relative affinity (E2 IC50 ÷ test chemical IC50 × 100). Entry: Oc1cc(Br)cc(Br)c1Oc1ccc(Br)cc1Br [6-OH-BDE-47, 6-OH-2, 2′,4, 4′-tetra-bromodiphenyl]
Result :: 0.001

Query :: Requested field: Relative affinity (E2 IC50 ÷ test chemical IC50 × 100). Item: Oc1c(Br)ccc(Oc2ccc(Br)cc2Br)c1Br [3-OH-BDE-47, 3-OH-2, 2′, 4, 4′-tetrabromodiphenyl]
Result :: 0.001
